B1: TPR t1 (parent)
chain: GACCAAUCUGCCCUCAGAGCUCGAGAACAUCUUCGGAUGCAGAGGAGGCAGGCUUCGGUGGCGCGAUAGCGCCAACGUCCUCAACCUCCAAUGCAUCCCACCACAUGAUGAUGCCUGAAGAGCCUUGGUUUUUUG

Variants of: B1
assay-comment: polymerase ribozyme fitness, log enrichment relative to wild type (log ratio); higher = more active; in vitro selection for triplet polymerase activity
Just so you know, the groups by polymerase ribozyme fitness (log ratio) go like this: 0 = under -4, 1 = from -4 up to -0.3, 2 = -0.3 and over

These recorded examples may help you get a feel for the data.
Please classify: C98U U116C
1

Please classify: G60A C88G
1

Please classify: U14A G48A U59A C89A
0

Consider now this further variant.
Please classify: G48U C102U
1
